Test system: human suspension cell line U 937
PROCEDURE SUMMARY: Absorption of cells at 690 nm after treatment with different reagents
Format: cell-based
CONDITION: 100 000 U 937 cells, reagent final concentration 1% (v/v)
QUANTITY NAME: Absorption after 5 min

CCCCCCCCCCCCN(C)CC(=O)O [N-laurylsarcosine]
0.012
CCCCCCCCCCCC[N+](C)(C)C.[Br-] [DTAB, dodecyltrimethylammonium bromide]
0.024
CCCCCCCCCCCCCCCC[N+](C)(C)C.[Br-] [CTAB, cetyltrimethylammonium bromide]
0.025
CCCCCCCCCCCCOS(=O)(=O)[O-].[Na+] [SDS, sodium dodecyl sulphate]
0.010
